The origin of these recorded values is PubChem BioAssay (NCI).

# Tested on: NCI-H522 lung
# method-notes: NCI tumour cell line growth inhibition, 48 h
Respond with Y for TGI values of 8 µM and above, N for values below.

molecule | label-class
C=C1C(=O)[C@@]23CC[C@H]4[C@@](C)(CCC[C@@]4(C)C(=O)OC)[C@@H]2CC[C@]1(O)C3 | N
CN(CC(=O)N1CC(CCl)c2ccc([N+](=O)[O-])cc21)CC(=O)N1CC(CCl)c2ccc([N+](=O)[O-])cc21 (centres undefined) | Y
Nc1ccc(C(=O)N/C(=C\c2ccc3c(c2)OCO3)c2nc3[nH]c(=S)[nH]c(=O)c3[nH]2)cc1 | Y
N=C(N)c1ccc(/C=C/c2ccc(C(=N)N)cc2)cc1 | Y
Cc1ccc(N=N/C(=N/NC(=O)c2cc(Cl)ccc2O)c2ccc(N(CCC#N)CCC#N)cc2C)cc1 | Y
CSC(=N/C=C/c1ccccc1)SC | Y
O=[N+]([O-])c1cnc(Sc2ccncn2)s1 | N
Nn1c(CCCCCCCCc2nnc(COc3ccc(Cl)cc3Cl)n2N)nnc1COc1ccc(Cl)cc1Cl | Y
Cn1ccnc1C(=O)/C=C/c1ccc(CC(=O)Nc2ccc(Br)cc2)cc1 | Y
